biological target: human VEGF165 (REGN110) (human, UniProt P15692 207-395); assay: cell-based or functional assay
Sequence (P15692 other isoform, or with tags, fused parts or gaps): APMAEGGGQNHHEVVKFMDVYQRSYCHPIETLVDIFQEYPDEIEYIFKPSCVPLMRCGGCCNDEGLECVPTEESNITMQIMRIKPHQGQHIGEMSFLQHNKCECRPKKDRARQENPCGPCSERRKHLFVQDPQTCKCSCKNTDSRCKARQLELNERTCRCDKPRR
measured_parameter: IC50 (M), inhibition of VEGFR1 signaling (luciferase), 20 pM VEGF165
One number for each entry, in M.

Consider the reported IC50 (M), inhibition of VEGFR1 signaling (luciferase), 20 pM VEGF165 for these binders:
| binder | unit_label | result |
| --- | --- | --- |
| REGN7850 (VEGF mini-trap-hFc …) (receptor, Recombinant homodimer; also called REGN7850 (CPPCPPC)) SDTGRPFVEMYSEIPEIIHMTEGRELVIPCRVTSPNITVTLKKFPLDTLIPDGKRIIWDSRKGFIISNATYKEIGLLTCEATVNGHLYKTNYLTHRQTNTIIDVVLSPSHGIELSVGEKLVLNCTARTELNVGIDFNWEYPSSKHQHKKLVNRDLKTQSGSEMKKFLSTLTIDGVTRSDQGLYTCAASSGLMTKKNSTFVRVHEKDKTHTCPPCPPC | M | 2.99e-11 |
| REGN7483^R (homodimer mini-trap, recombinant) (receptor, N-linked glycans at N36, N68, N123, N196 (Table C), also called Recombinant dimer mini-trap) SDTGRPFVEMYSEIPEIIHMTEGRELVIPCRVTSPNITVTLKKFPLDTLIPDGKRIIWDSRKGFIISNATYKEIGLLTCEATVNGHLYKTNYLTHRQTNTIIDVVLSPSHGIELSVGEKLVLNCTARTELNVGIDFNWEYPSSKHQHKKLVNRDLKTQSGSEMKKFLSTLTIDGVTRSDQGLYTCAASSGLMTKKNSTFVRVHEKDKTHTCPPCPAPELLG | M | 1.92e-11 |
| REGN7851 (VEGF mini-trap-hFc …) (receptor, Recombinant homodimer; also called REGN7851 (CPPCPPCPPC)) SDTGRPFVEMYSEIPEIIHMTEGRELVIPCRVTSPNITVTLKKFPLDTLIPDGKRIIWDSRKGFIISNATYKEIGLLTCEATVNGHLYKTNYLTHRQTNTIIDVVLSPSHGIELSVGEKLVLNCTARTELNVGIDFNWEYPSSKHQHKKLVNRDLKTQSGSEMKKFLSTLTIDGVTRSDQGLYTCAASSGLMTKKNSTFVRVHEKDKTHTCPPCPPCPPC | M | 2.68e-11 |

Next binder, IC50 (M), inhibition of VEGFR1 signaling (luciferase), 20 pM VEGF165 to be filled in.
IC50 (M), inhibition of VEGFR1 signaling (luciferase), 20 pM VEGF165 lookup needed for REGN3, full-length VEGF Trap (aflibercept) (Fc fusion, human, UniProt P17948 129-231, looked up, not shown: a dimerising Fc or GST, range 129-231;range 226-327; also called Eylea; VEFGR1d2-VEGFR2d3 VEGF Trap) SDTGRPFVEMYSEIPEIIHMTEGRELVIPCRVTSPNITVTLKKFPLDTLIPDGKRIIWDSRKGFIISNATYKEIGLLTCEATVNGHLYKTNYLTHRQTNTIIDVVLSPSHGIELSVGEKLVLNCTARTELNVGIDFNWEYPSSKHQHKKLVNRDLKTQSGSEMKKFLSTLTIDGVTRSDQGLYTCAASSGLMTKKNSTFVRVHEK , thanks. 2.09e-11
